tested on: HOP-92; assay: Antiproliferative activity against human HOP-92 cells assessed as inhibition of cell growth incubated for 72 hrs by celltiter-glo assay; format: functional, cell-based; conditions: HOP-92, 72 h
measure.name: pIC50
Give bare numbers, as −log10 of the molar value.

Requested field: pIC50. Item: CCc1cccc(CC)c1NC(=O)c1nn(C)c2c1CCc1cnc(Nc3ccc(C(=O)NC4CCN(C)CC4)cc3OC(F)(F)F)nc1-2
5.66

###

target: Serine/threonine-protein kinase 26 (Homo sapiens); assay: Inhibition of recombinant MST4 (unknown origin)
Sequence (Q9P289 whole entry): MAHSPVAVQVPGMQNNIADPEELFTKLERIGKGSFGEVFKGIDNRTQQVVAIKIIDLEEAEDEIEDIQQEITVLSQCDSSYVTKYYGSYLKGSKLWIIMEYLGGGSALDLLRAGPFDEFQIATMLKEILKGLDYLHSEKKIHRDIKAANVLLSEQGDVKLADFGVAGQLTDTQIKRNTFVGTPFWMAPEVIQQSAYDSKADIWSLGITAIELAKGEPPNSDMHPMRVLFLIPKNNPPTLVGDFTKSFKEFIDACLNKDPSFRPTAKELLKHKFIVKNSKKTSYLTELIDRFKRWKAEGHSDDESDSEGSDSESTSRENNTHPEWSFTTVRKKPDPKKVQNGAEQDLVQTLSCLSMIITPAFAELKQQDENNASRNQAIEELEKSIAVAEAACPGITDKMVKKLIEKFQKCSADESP
measure.name: IC50

Requested field: IC50. Item: CCc1cccc(CC)c1NC(=O)c1nn(C)c2c1CCc1cnc(Nc3ccc(C(=O)NC4CCN(C)CC4)cc3OC(F)(F)F)nc1-2
> 10 µM

---
Requested field: IC50. Item: O=C1c2ccccc2-c2n[nH]c3cccc1c23
> 10 µM

###

system: SF-295; test: Antiproliferative activity against human SF-295 cells assessed as inhibition of cell growth incubated for 72 hrs by celltiter-glo assay; format: functional, cell-based; conditions: SF-295, 72 h
measure.name: IC50
Respond with the figure and its unit, in that order.

Requested field: IC50. Item: CCc1cccc(CC)c1NC(=O)c1nn(C)c2c1CCc1cnc(Nc3ccc(C(=O)NC4CCN(C)CC4)cc3OC(F)(F)F)nc1-2
2.88 µM

###

target: Serine/threonine-protein kinase Nek6 (Homo sapiens, UniProt Q9HC98); assay: Inhibition of recombinant NEK6 (unknown origin)
Sequence (Q9HC98 whole entry): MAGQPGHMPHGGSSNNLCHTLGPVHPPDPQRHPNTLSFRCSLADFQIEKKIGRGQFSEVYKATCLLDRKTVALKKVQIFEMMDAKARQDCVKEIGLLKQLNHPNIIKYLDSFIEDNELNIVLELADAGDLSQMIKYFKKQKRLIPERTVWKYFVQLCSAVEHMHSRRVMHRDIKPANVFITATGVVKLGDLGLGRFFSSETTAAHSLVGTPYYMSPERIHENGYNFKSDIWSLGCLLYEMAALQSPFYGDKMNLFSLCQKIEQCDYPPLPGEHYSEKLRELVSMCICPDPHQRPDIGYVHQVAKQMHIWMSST
measure.name: pIC50
Answers are plain numbers, as −log10 of the molar value.

Requested field: pIC50. Item: CCc1cccc(CC)c1NC(=O)c1nn(C)c2c1CCc1cnc(Nc3ccc(C(=O)NC4CCN(C)CC4)cc3OC(F)(F)F)nc1-2
5.22

###

system: HCC78; test: Antiproliferative activity against human HCC78 cells assessed as inhibition of cell growth incubated for 72 hrs by celltiter-glo assay; assay type: functional, cell-based; conditions: HCC78, 72 h
measure.name: pIC50
Numbers only, as −log10 of the molar value.

Requested field: pIC50. Item: CCc1cccc(CC)c1NC(=O)c1nn(C)c2c1CCc1cnc(Nc3ccc(C(=O)NC4CCN(C)CC4)cc3OC(F)(F)F)nc1-2
5.00

###

biological target: Focal adhesion kinase 1 (Homo sapiens, UniProt Q05397); assay: Inhibition of recombinant FAK (unknown origin)
Sequence (Q05397 whole entry): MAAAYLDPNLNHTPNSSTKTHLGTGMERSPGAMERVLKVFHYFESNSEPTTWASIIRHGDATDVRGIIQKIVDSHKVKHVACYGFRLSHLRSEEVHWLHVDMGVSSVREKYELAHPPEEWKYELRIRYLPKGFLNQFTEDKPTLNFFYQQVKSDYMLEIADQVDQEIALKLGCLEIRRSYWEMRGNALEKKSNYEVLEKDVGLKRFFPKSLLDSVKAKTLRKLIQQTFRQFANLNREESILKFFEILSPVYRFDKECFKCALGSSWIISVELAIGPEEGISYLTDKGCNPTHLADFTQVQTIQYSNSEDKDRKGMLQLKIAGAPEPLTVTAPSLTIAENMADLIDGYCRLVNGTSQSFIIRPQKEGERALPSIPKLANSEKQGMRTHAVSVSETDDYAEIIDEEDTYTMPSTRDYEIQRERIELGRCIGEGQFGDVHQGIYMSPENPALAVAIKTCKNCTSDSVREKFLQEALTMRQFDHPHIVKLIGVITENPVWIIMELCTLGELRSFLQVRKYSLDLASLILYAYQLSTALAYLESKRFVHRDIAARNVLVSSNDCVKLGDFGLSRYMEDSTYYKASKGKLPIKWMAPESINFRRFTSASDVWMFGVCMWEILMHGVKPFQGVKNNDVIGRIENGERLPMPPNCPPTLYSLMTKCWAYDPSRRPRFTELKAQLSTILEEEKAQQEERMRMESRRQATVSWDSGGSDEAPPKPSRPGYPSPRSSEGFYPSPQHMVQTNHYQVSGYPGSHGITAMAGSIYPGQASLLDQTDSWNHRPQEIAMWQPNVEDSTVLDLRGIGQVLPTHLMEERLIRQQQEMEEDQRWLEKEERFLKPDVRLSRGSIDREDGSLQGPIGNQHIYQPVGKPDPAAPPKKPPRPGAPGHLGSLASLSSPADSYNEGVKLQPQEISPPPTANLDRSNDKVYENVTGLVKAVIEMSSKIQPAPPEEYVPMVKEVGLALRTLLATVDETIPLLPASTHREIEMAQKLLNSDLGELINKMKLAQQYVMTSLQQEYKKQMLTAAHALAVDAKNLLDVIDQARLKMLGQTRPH
measure.name: IC50 (µM)
Give bare numbers, in µM.

Requested field: IC50. Item: O=C1c2ccccc2-c2n[nH]c3cccc1c23
3.86

###

Molecular target: Dual specificity protein kinase TTK (Homo sapiens)
Sequence (P33981 whole entry): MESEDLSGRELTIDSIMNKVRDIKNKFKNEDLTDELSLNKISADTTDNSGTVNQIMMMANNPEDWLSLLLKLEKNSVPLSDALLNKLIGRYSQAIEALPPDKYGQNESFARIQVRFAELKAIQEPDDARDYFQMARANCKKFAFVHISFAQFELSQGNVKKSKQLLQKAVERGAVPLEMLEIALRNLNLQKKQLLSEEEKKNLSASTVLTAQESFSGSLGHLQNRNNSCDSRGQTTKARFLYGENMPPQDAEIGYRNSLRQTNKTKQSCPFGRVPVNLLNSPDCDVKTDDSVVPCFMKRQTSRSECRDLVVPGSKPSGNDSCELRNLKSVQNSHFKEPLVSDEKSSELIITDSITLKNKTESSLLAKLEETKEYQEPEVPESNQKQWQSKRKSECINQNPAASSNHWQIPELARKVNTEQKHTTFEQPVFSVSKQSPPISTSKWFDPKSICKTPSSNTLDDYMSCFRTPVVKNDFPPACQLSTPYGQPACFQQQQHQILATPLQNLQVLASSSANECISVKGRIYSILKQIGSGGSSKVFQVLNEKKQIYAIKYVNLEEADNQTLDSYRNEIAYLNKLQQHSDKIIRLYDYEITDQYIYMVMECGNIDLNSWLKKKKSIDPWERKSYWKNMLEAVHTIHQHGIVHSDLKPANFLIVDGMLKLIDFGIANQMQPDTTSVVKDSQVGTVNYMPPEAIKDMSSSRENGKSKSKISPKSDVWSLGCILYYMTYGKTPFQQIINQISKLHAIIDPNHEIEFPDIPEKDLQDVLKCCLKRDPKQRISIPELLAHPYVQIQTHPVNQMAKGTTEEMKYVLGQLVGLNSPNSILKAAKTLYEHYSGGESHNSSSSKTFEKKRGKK
Experiment: Inhibition of MPS1 in human taxol-arrested U2OS cells assessed as effect on histone H3 phosphorylation at ser10 residue incubated for 2 hrs by arrayscan analysis
Type: cell-based
measure.name: EC50 (µM)
Numbers only, in µM.

Requested field: EC50. Item: O=C1c2ccccc2-c2n[nH]c3cccc1c23
8.98
